# ASSAY: NCI Yeast Anticancer Drug Screen. Data for the sgs1 strain (AID 173);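 note: 0% = growth of vehicle-only control cultures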
# REPORTED_CONDITIONS: S. cerevisiae sgs1 mutant, at 1.2 µM, active compounds read high
This is part of a sample that, as a whole, favours compounds with a hit. Of some 79,000 tested, about 15% had one in any assay.
Exercise: state measured growth inhibition for each of the compounds provided.
Give bare numbers, in %.

Completed entries (count: 5):
C[C@]12CC[C@H](O)CC1=CC[C@@H]1C2CC[C@]2(C)C(=O)NC(=O)CC12 (stereo partly drawn) :: 17
CCOC(=O)C#Cc1ccc([N+](=O)[O-])cc1 :: 1
COc1cc(C2c3cc4c(cc3OC(OC(C)=O)C2C)OCO4)cc(OC)c1OC (stereo not drawn) :: -3
O=C1Nc2ccccc2/C1=C/c1ccccc1 :: 0
CCc1c[n+]([O-])c(C)cc1[N+](=O)[O-] :: 10

Value sought for every listed compound: growth inhibition.
1. CNC(=O)OCc1c(COC(=O)NC)c2n(c1C)-c1ccc(OC)cc1CCC2
2. COc1ccc(N=CN(C)C)c(C)c1

Reply:
-15
-45

Value sought for every listed compound: growth inhibition.
1. S=c1[nH]c2cc3ccccc3cc2[nH]1
2. COc1ccc(C(=O)C(CN(C)C)CN(C)C)cc1

Reply:
1. -27
2. -7

Value sought for every listed compound: growth inhibition.
1. CSc1nnc(SC)nn1
2. CC(C)(C)c1ccc(NS(=O)(=O)c2ccc(N)cc2)cc1
3. COC(=O)CC1(O)C(/C=C/c2ccccc2)C(C(=O)OC)C(=O)C(C(=O)OC)C1C(=O)OC (stereo not drawn)
4. O=C(CSC(=S)N1CCCCC1)Nc1nc2c(s1)CCCC2
5. CC(C)=NOC(=O)Nc1ccc(Cl)cc1
6. COC(=O)Nc1cn2ccc(C(Cl)=C(Cl)Cl)cc2n1
7. CCCCCCSc1ncnc2[nH]ncc12

Reply:
1. -2
2. 3
3. -1
4. 22
5. -16
6. 6
7. -3
